Numbers sourced from patent US9018231B2.

Assay: Rodent pharmacokinetic study
Assay type: in vivo
Conditions: plasma; Wistar/Male rat, 10 mg/kg, Oral vs Intravenous; read-out: Bioavailability
attribute_measured: bioavailability (%)

> print(dat)
                                   compound  attribute.measured  observed.measurement
1  COc1ccc(S(=O)(=O)c2c[nH]c3cc(Cl)ccc23)cc1NC1CCN(C)CC1     bioavailability                    24
2  CN1CCC(Nc2cc(S(=O)(=O)c3c[nH]c4cc(Cl)ccc34)ccc2Cl)CC1.Cl     bioavailability                    58
3  COc1ccc(S(=O)(=O)c2cc(Br)ccc2OC)cc1NC1CCNCC1F.Cl (stereo not shown)     bioavailability                    44
4  COc1ccc(S(=O)(=O)c2cc(Br)ccc2OC)cc1NC1CCN(C)CC1.Cl     bioavailability                    38

* * *

attribute_measured: melting point

> print(dat)
                                   molecule  attribute.measured  observed.measurement
1  COc1ccc(S(=O)(=O)c2c[nH]c3cc(Cl)ccc23)cc1NC1CCN(C)CC1 [Example 17]       melting point       88.6 to 91.6 °C
2  COc1ccc(S(=O)(=O)c2c[nH]c3cc(Cl)ccc23)cc1NC1CCNCC1 [Example 16]       melting point       208 to 208.9 °C
3  COc1ccc2[nH]cc(S(=O)(=O)c3ccc(Cl)c(NC4CCN(C)CC4)c3)c2c1.Cl       melting point     240.3 to 243.2 °C
4  CN1CCC(Nc2cc(S(=O)(=O)c3c[nH]c4cc(Cl)ccc34)ccc2Cl)CC1.Cl [Example 8]       melting point     189.7 to 194.2 °C
5  CN1CCC(Nc2cc(S(=O)(=O)c3c[nH]c4cc(Cl)ccc34)ccc2Cl)CC1 [Example 15]       melting point     186.1 to 189.9 °C
6  CN1CCC(Nc2cccc(S(=O)(=O)c3c[nH]c4ccc(F)cc34)c2)CC1.Cl [Example 6]       melting point     229.7 to 233.1 °C

* * *

Listed here are compounds together with their documented AUC(0-t).
Experiment: Rodent pharmacokinetic study
Format: in vivo
Conditions: plasma; Wistar/Male rat, 10 mg/kg, Intravenous; vehicle water (Ex. 8: 50% PEG 400)
attribute_measured: AUC(0-t)

> print(dat)
                                   compound  observed.measurement
1  COc1ccc(S(=O)(=O)c2cc(Br)ccc2OC)cc1NC1CCN(C)CC1.Cl          1610 ng·h/mL
2  COc1ccc(S(=O)(=O)c2cc(Br)ccc2OC)cc1NC1CCNCC1F.Cl (stereo not shown)          3470 ng·h/mL
3  COc1ccc(S(=O)(=O)c2c[nH]c3cc(Cl)ccc23)cc1NC1CCN(C)CC1          5730 ng·h/mL
4  CN1CCC(Nc2cc(S(=O)(=O)c3c[nH]c4cc(Cl)ccc34)ccc2Cl)CC1.Cl          6950 ng·h/mL

* * *

Test: Rodent pharmacokinetic study
Type: in vivo
Details: plasma; Wistar/Male rat, 10 mg/kg, Oral; vehicle water (Ex. 8: 50% PEG 400); read-out: Cmax
attribute_measured: Cmax (ng/mL)

> print(dat)
                                   compound  observed.measurement
1  COc1ccc(S(=O)(=O)c2cc(Br)ccc2OC)cc1NC1CCNCC1F.Cl (stereo not shown)                   429
2  COc1ccc(S(=O)(=O)c2c[nH]c3cc(Cl)ccc23)cc1NC1CCN(C)CC1                   379
3  COc1ccc(S(=O)(=O)c2cc(Br)ccc2OC)cc1NC1CCN(C)CC1.Cl                   341
4  CN1CCC(Nc2cc(S(=O)(=O)c3c[nH]c4cc(Cl)ccc34)ccc2Cl)CC1.Cl                   327

* * *

Biological target: recombinant human 5-HT6 receptor (Homo sapiens, UniProt P50406)
Construct: expressed in transfected cells
Sequence (P50406 whole entry): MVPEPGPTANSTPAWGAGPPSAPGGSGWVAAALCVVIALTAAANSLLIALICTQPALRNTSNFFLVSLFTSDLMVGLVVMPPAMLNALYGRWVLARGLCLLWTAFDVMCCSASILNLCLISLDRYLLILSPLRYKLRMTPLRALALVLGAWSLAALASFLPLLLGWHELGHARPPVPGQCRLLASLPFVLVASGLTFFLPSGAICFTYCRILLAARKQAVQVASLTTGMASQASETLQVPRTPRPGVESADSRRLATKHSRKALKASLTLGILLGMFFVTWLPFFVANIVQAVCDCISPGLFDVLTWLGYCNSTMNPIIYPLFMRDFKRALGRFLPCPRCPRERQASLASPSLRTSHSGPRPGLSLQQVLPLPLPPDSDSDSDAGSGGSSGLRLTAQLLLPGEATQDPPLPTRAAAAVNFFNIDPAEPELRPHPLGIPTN
Test: Determination of Kb values for 5-HT6 receptor (CHO pCRE-Luc reporter assay)
Type: cell-based
Settings: antagonism of 10 uM serotonin, luciferase reporter, CHO cells
Protocol: A stable CHO cell line expressing recombinant human 5-HT6 receptor and pCRE-Luc reporter system was used for cell-based assay. The assay offers a non-radioactive based approach to determine binding of a compound to GPCRs. In this specific assay, the level of intracellular cyclic AMP which is modulated by activation or inhibition of the receptor is measured. The recombinant cells harbor luciferase reporter gene under the control of cAMP response element. […]
Counter-ions that a name gives are not always drawn.
Mark label 0 for Kb values under 0.1 nM, and label 1 for everything at or above.

> print(dat)
                                    molecule  label.value
 1  COc1ccc(S(=O)(=O)c2c[nH]c3cc(Cl)ccc23)cc1NC1CCNCC1 [Example 16]      label 1
 2  COc1ccc(Br)cc1S(=O)(=O)c1ccc(C)c(NC2CCNCC2F)c1 (stereo not shown) [Example 18, hydrochloride]      label 1
 3  CN1CCC(Nc2cccc(S(=O)(=O)c3c[nH]c4cc(Cl)ccc34)c2)CC1 [Example 5, hydrochloride]      label 1
 4  COc1ccc(S(=O)(=O)c2ccc(OC)c(NC3CCN(C)CC3)c2)cc1Br [Example 30]      label 0
 5  COc1ccc(S(=O)(=O)c2c[nH]c3ccccc23)cc1NC1CCN(C)CC1 [Example 11]      label 0
 6  COc1ccc2[nH]cc(S(=O)(=O)c3ccc(OC)c(NC4CCNCC4)c3)c2c1 [Example 14]      label 1
 7  COc1ccc(S(=O)(=O)c2ccc(Cl)cc2)cc1NC1CCN(C)CC1 [Example 32]      label 0
 8  COc1ccc2[nH]cc(S(=O)(=O)c3ccc(OC)c(NC4CCN(C)CC4)c3)c2c1 [Example 13]      label 1
 9  Cc1ccc(S(=O)(=O)c2c[nH]c3cc(Cl)ccc23)cc1NC1CCN(C)CC1 [Example 1]      label 1
10  COc1ccc(Br)cc1S(=O)(=O)c1ccc(C)c(NC2CCN(C)CC2)c1 [Example 23, hydrochloride]      label 1
11  CN1CCC(Nc2cc(S(=O)(=O)c3c[nH]c4cc(Cl)ccc34)ccc2Cl)CC1.Cl [Example 8, hydrochloride]      label 1
12  CN1CCC(Nc2cccc(S(=O)(=O)c3c[nH]c4ccc(F)cc34)c2)CC1.Cl [Example 6, hydrochloride]      label 1
13  COc1ccc(S(=O)(=O)c2cc(F)ccc2OC)cc1NC1CCN(C)CC1 [Example 31]      label 0
14  COc1ccc(Br)cc1S(=O)(=O)c1ccc(C)c(NC2CCNCC2)c1 [Example 22, hydrochloride]      label 1
15  COc1ccc(S(=O)(=O)c2cc(Br)ccc2OC)cc1NC1CCN(C)CC1.Cl [Example 3, hydrochloride salt]      label 0
16  COc1ccc(S(=O)(=O)c2c[nH]c3cc(Cl)ccc23)cc1NC1CCN(C)CC1 [Example 17]      label 1

* * *

Listed here are molecules together with their documented Tmax.
Experiment: Rodent pharmacokinetic study
Format: in vivo
Settings: plasma; Wistar/Male rat, 10 mg/kg, Oral; vehicle water (Ex. 8: 50% PEG 400); read-out: Tmax
Description: Male wistar rats (230-280 grams) obtained from NIN (National Institute of Nutrition, Hyderabad, India) were used as an experimental animal. Three to five animals were housed in each cage. […] At each time point blood was collected by jugular vein. […] The concentrations of the NCE compound in plasma were determined using LC-MS/MS method. […] The NCE compounds were quantified in plasma by validated LC-MS/MS method using solid phase extraction technique. […]
attribute_measured: Tmax (h)

> print(dat)
                                   molecule  result.units  observed.measurement
1  COc1ccc(S(=O)(=O)c2cc(Br)ccc2OC)cc1NC1CCN(C)CC1.Cl             h                  0.56
2  COc1ccc(S(=O)(=O)c2c[nH]c3cc(Cl)ccc23)cc1NC1CCN(C)CC1             h                     3
3  CN1CCC(Nc2cc(S(=O)(=O)c3c[nH]c4cc(Cl)ccc34)ccc2Cl)CC1.Cl             h                     3
4  COc1ccc(S(=O)(=O)c2cc(Br)ccc2OC)cc1NC1CCNCC1F.Cl (stereo not shown)             h                  0.83

* * *

Assay: Rodent pharmacokinetic study
Type: in vivo
Settings: plasma; Wistar/Male rat, 10 mg/kg, Intravenous; vehicle water (Ex. 8: 50% PEG 400); read-out: Cmax
Listed here are compounds together with their documented Cmax.
attribute_measured: Cmax (ng/mL)

> print(dat)
                                   compound  result.units  observed.measurement
1  COc1ccc(S(=O)(=O)c2c[nH]c3cc(Cl)ccc23)cc1NC1CCN(C)CC1         ng/mL                  4220
2  CN1CCC(Nc2cc(S(=O)(=O)c3c[nH]c4cc(Cl)ccc34)ccc2Cl)CC1.Cl         ng/mL                  1340
3  COc1ccc(S(=O)(=O)c2cc(Br)ccc2OC)cc1NC1CCN(C)CC1.Cl         ng/mL                  1080
4  COc1ccc(S(=O)(=O)c2cc(Br)ccc2OC)cc1NC1CCNCC1F.Cl (stereo not shown)         ng/mL                  1920
